Target: T1, AAV5
T1 construct: also called adeno-associated virus serotype 5
Assay: SPR, AAV on CM5 chip;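 note: surface plasmon resonance with AAV amine-coupled to the chip as ligand, nanobodies injected as analyte over a concentration series, rate constants and affinity fitted from binding curves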
Measurement name: koff
Give the value; after it, write the unit.

A4-050 (VHH) VHH: VQLQESGGGLVQPGGSLRLSCAASGSSFVINTMGWYRQAPGKQRELVAAVTRGGSTNYADSVKGRFTISRDNAKNTVYLQMNSLRPEDTAVYYCHVDEVRQSSWTTSNLWGQGTQVTVSS = 7e-05 s⁻¹

Need koff of A4-032 (VHH) VHH: VQLQESGGGLVQPGGSLRLSCVASGSSFSINTMGWYRQAPGKQRELVATVTRDGSTNYANSVKGRFTISRDNAKNTVYLQMNSLRPEDTAVYYCHVDEVRQSSWTTSNLWGQGTQVTVSS , thanks.
0.0009 s⁻¹

Name the reported koff value associated with the binder A4-019 (VHH) VHH: VQLQESGGGLVQAGGSLRLSCAASGSTFSINTMGWYRQAPGKQRELVATITRGGSTNYADSVKGRFTISRDNAKNTVYLQMNSLRPEDTAVYYCHVDEVRQSSWTTSNIWGQGTQVTVSS
0.00156 s⁻¹

Endpoint output: koff of A4-015 (VHH) VHH: VQLQESGGGLVQPGGSLRLSCAASGSIFSINLMGWYRQAAGKQRELVATITPGGNTNYAGSVKGRFTISRDNAKNTVYLQMNSLRPEDTAVYYCHVDEVRQSSWTTSNLWGQGTQVTVSS . Value?
0.00052 s⁻¹
